Item-by-item account of pEC50
Target: T1, cynoGITR ECD hFc (Macaca fascicularis)
T1 construct: cynomolgus GITR, extracellular domain, Gln20-Glu155, NCBI XP_005545180.1; also called cynoGITR protein; cGITR; source: FreeStyle 293F, transiently transfected, purified by protein A
T1 chain: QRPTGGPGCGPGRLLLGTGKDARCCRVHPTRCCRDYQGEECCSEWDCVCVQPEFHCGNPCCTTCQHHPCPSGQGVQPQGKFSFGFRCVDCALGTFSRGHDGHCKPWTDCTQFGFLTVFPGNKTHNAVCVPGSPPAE
Experiment: ELISA; indirect ELISA; antigen hFc fusion protein coated on 96-well plates (1 μg·mL^−1 overnight at 4 °C in Fig. 3B), antibody added, detected with anti-rat IgG/hIgG-peroxidase antibody
Conditions: both partners purified
Please keep in mind that pEC50 is minus log10 of the molar concentration; only the number is needed.

binder="hab076e1 (antibody, V domains shown, as the VH of m15 (3503‐hab076‐VH); 3503‐hab076‐Vk(C2Y); the substitution is against the VL of m15 (Cys in FR3 of VL); position not given; Whole antibody, human IgG1 heavy chain constant region, human kappa light chain constant region; source: FreeStyle 293F, transiently co-transfected, purified from culture supernatant) VH: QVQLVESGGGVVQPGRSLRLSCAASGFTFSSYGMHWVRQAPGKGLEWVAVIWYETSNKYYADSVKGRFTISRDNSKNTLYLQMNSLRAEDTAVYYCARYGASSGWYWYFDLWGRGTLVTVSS VL: DIQLTQSPSFLSASVGDRVTITCRASQGISSYLAWYQQKPGKAPKLLIYAASTLQSGVPSRFSGSGSGTEFTLTISSLQPEDFATYYCQQLNSYPFTFGQGTKLEIK" reported_measurement=10.03

Now take the following binder into account.
INPUT: Please give the measured pEC50 for this binder: mAb076 (antibody, V domains shown, as the VH of m15; as the VL of m15; Human-murine chimeric antibody from H2L2 mice: human variable regions, rat constant regions; source: hybridoma cell culture supernatant, purified (Protein A)) VH: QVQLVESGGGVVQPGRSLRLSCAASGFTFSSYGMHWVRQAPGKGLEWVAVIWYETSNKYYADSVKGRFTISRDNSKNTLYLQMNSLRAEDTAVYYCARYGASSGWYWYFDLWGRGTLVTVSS VL: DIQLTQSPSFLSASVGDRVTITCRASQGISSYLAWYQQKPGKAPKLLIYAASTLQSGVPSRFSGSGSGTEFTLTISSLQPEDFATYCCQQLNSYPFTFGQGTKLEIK
OUTPUT: 10.92

// data source = paper PMC9340783
